system: OVCAR-4 ovarian; assay: NCI-60 one-dose screen, 48 h; details: 10 µM
Compounds without any hit were thinned out: in the full panel of roughly 83,000, 20% have a hit. Calls of active or inactive are those of the source. Rule for the calls: active = growth percent below 10; inactive = the rest.
Mark one answer only. Choices: y for active, n for inactive

# lookup: test call for CN1CCN(c2ccc(Nc3nc(NCCCNC(=O)c4ccc(F)cc4)c4sccc4n3)cc2)CC1
n

# lookup: test call for O=C(Cn1nc(-c2ccccc2)ccc1=O)NN1C(=O)c2ccccc2C1=O
n

# lookup: test call for O=C1CCC(N2Cc3c(C#CCCCNC(=O)c4ccc(NC(=O)[C@@H]5NC6(CCCCC6)[C@@]6(C(=O)Nc7cc(Cl)ccc76)[C@H]5c5cccc(Cl)c5F)cc4)cccc3C2=O)C(=O)N1 (some centres not stated)
n

# lookup: test call for Nc1nc2c(F)c(F)c(F)c(F)c2s1
n

# lookup: test call for CCCCCc1ccc(S(=O)(=O)N(C(C)=O)c2cc(-c3csc(N(C)C(C)=O)n3)ccc2N2CCN(C)CC2)cc1
n

# lookup: test call for O=c1oc2ccc(-c3ccc(F)cc3F)cc2c(=O)n1-c1ccc(F)cc1
n

# lookup: test call for COc1cc(-c2nc3cc(Cl)c(Cl)cc3[nH]2)ccc1OCc1nnc(-c2ccc(Br)cc2)o1
y

# lookup: test call for COc1ccc2nc(Cl)c(-c3cc(-c4ccccc4)nc(N)n3)cc2c1
n

# lookup: test call for CN1C(=O)/C(=C/c2ccc3ncsc3c2)NC1=NC12CC3CC(CC(O)(C3)C1)C2
n

# lookup: test call for COc1ccc(-c2nc(S(=O)(=O)c3ccc(C)cc3)c(S(C)(=O)=O)o2)cc1
y

# lookup: test call for Cc1cc(=O)oc2cc(OCCCCOc3ccc(/C=C/C(=O)Nc4ccccc4[N+](=O)[O-])cc3)ccc12
n

# lookup: test call for CC(=O)Nc1ccc(-c2cn(-c3cccc(C(=O)Nc4ccc(F)c(C(F)(F)F)c4)c3)nn2)cn1
n

# lookup: test call for Nc1nc(Nc2ccc(Cl)cc2)n(Cc2cccc(Br)c2)n1
y

# lookup: test call for N#C/C(=C\c1ccc(N(c2ccccc2)c2ccccc2)cc1)C(N)=O
y

# lookup: test call for COc1ccc(N(C)c2cc(C#N)nc3ccccc23)cc1/C=C/C(=O)NO
y

# lookup: test call for Cc1ccc(CSc2nc(Cl)c(C#N)c(-c3ccc(F)cc3)n2)cc1
n

# lookup: test call for CC(C)C(=O)Nc1ccc(C(=O)NC(=S)Nc2ccc(C(=O)O)cc2)cc1
n
